Tested on: B. fragilis sp. fragilis ATCC25285
assay.method.text: MIC by standard micro dilution method (NCCLS M7-A5)
Type: cell-based
experimental.setup: Bacteroides fragilis, anaerobic strain, Brucella Blood medium supplemented, read-out: MIC, microorganism (7) B. fragilis sp. fragilis ATCC25285
quantity.name: MIC

Examples with their reported MIC follow.
CC(=O)NC[C@H]1CN(c2ccc(N3CCC(n4cc(-c5ccc([N+](=O)[O-])cc5)cn4)C3)c(F)c2)C(=O)O1 (stereo partly drawn)
1 µg/mL
CC(=O)NC[C@H]1CN(c2ccc(N3CCC(n4cc([N+](=O)[O-])cn4)C3)c(F)c2)C(=O)O1 (stereo partly drawn)
0.5 µg/mL

Give MIC for each listed item.
1. CC(=O)NC[C@H]1CN(c2ccc(N3CCC(n4cc(-c5ccncc5)cn4)C3)c(F)c2)C(=O)O1 (stereo partly drawn)
2. CC(=O)NC[C@H]1CN(c2ccc(N3CCC(n4cc(Br)cn4)C3)c(F)c2)C(=O)O1 (stereo partly drawn)
3. CC(=O)NC[C@H]1CN(c2ccc(N3CCC(n4ccc(C(F)(F)F)n4)C3)c(F)c2)C(=O)O1 (stereo partly drawn)
4. CC(=O)NC[C@H]1CN(c2ccc(N3CCC(n4nnc(-c5cccs5)n4)C3)c(F)c2)C(=O)O1 (stereo partly drawn)

1: 0.25 µg/mL; 2: 0.5 µg/mL; 3: 1 µg/mL; 4: 0.5 µg/mL

Give MIC for each listed item.
1. CC(=O)NC[C@H]1CN(c2ccc(N3CCOCC3)c(F)c2)C(=O)O1 [Linezolid, reference compound]
2. CC(=O)NC[C@H]1CN(c2ccc(N3CCC(n4ccnn4)C3)c(F)c2)C(=O)O1 (stereo partly drawn)
3. CC(=O)NC[C@H]1CN(c2ccc(N3CCC(n4cc(-c5ccncn5)cn4)C3)c(F)c2)C(=O)O1 (stereo partly drawn)

2 µg/mL
1 µg/mL
0.5 µg/mL
